- System: Beauveria bassiana
- assay: Antimicrobial activity against Beauveria bassiana by broth microdilution method
- Type: functional
test readout: MIC90

Query: Report measured MIC90; entry is "C[C@@H](c1ncncc1F)[C@](O)(Cn1cncn1)c1ccc(F)cc1F"
Response: > 8 µg/mL

====

Exercise: for every item that follows, state its recorded MIC50.
- Tested on: Naganishia albida
- assay: Antimicrobial activity against Cryptococcus albidus by broth microdilution method
- Type: functional
*1 amine or outer side, *2 acyl side, *3 side chain or, on linkers, in order; H or OH if unused. Where a SMILES comes first, the peptide text is derived from it. Bridges are numbered along the chain shown (N, C = ends). [ ]: non-standard residue; d: D form. The star is where a group is joined. hTyr(3S-OH,4S-OH,3'-OSO3H) = N[C@H](C(=O)O)[C@H](O)[C@@H](O)c1ccc(O)c(OS(=O)(=O)O)c1; Orn(4R-OH,5R-OH) = O=C([C@H](C[C@@H](O)[C@@H](O)N[*:3])N[*:1])[*:2]; Pro(3S-OH,4S-Me) = C[C@H]1CN[C@H](C(=O)O)[C@H]1O; X1 = CCCCCOc1ccc(-c2cc(-c3ccc(C(=O)*)cc3)no2)cc1; Gln(3R-OH) = NC(=O)C[C@@H](O)[C@H](N)C(=O)O; Hyp = O=C(O)[C@@H]1C[C@@H](O)CN1

C[C@@H]1[C@H](O)[C@@H](C)/C=C/C=C/C=C/C=C/C=C/C=C/C=C/[C@H](O[C@@H]2O[C@H](C)[C@@H](O)[C@H](N)[C@@H]2O)C[C@@H]2O[C@](O)(C[C@@H](O)C[C@@H](O)[C@H](O)CC[C@@H](O)C[C@@H](O)CC(=O)O[C@H]1C)C[C@H](O)[C@H]2C(=O)O [AMPHOTERICIN B] = 0.5 µg/mL
C[C@@H](c1ncncc1F)[C@](O)(Cn1cncn1)c1ccc(F)cc1F [VORICONAZOLE] = 0.5 µg/mL
CC[C@@H]([C@H](C)O)n1ncn(-c2ccc(N3CCN(c4ccc(OC[C@@H]5CO[C@@](Cn6cncn6)(c6ccc(F)cc6F)C5)cc4)CC3)cc2)c1=O [POSACONAZOLE] = 0.25 µg/mL
CCCCCOc1ccc(-c2cc(-c3ccc(C(=O)N[C@H]4C[C@@H](O)[C@@H](O)NC(=O)[C@@H]5[C@@H](O)[C@@H](C)CN5C(=O)[C@H]([C@H](O)CC(N)=O)NC(=O)[C@H]([C@H](O)[C@@H](O)c5ccc(O)c(OS(=O)(=O)O)c5)NC(=O)[C@@H]5C[C@@H](O)CN5C(=O)[C@H]([C@@H](C)O)NC4=O)cc3)no2)cc1 [MICAFUNGIN] (X1-[Orn(4R-OH,5R-OH)]T[Hyp][hTyr(3S-OH,4S-OH,3'-OSO3H)][Gln(3R-OH)][Pro(3S-OH,4S-Me)]; lactam 1-C) = > 16 µg/mL

Here's the next entry for you.
Query: Fill in reported MIC50 for this entry: Nc1nc(=O)[nH]cc1F [FLUCYTOSINE]
Response: 16 µg/mL
